The measurements presented in this section are drawn from patent US20160264662A1.

Target: T1, recombinant human TEM8 ectodomain (human, UniProt Q9H6X2 33-321)
T1 construct: also called TEM8-ED; Tumor Endothelial Marker 8
T1 sequence: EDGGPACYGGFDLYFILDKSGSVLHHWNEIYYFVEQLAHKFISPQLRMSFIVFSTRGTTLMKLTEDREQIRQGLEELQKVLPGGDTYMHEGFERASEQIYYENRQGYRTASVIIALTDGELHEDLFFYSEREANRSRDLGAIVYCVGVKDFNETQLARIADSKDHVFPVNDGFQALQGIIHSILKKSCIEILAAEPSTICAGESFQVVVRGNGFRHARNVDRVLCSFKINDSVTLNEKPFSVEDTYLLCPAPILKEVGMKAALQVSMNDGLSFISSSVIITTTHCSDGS
Experiment: SPR (Biacore), antibody in IgG1 format, recombinant human TEM8 ectodomain; apparent KD
Please go through the items and note down their pKd.
Keep in mind that pKd stands for -log10 of concentration in molar terms.

Q: Consider the binder m825 antibody in human IgG1 format (antibody, V domains shown, also called m825 mAb; human m825-IgG1) VH: QVQLVQSGAEVKKPGTSVKVSCKVPGYTFSSYAISWVRQAPGQGLEWMGGIIPIFGTTNYAQKFQGRVTITGEESTSTVYMELSSLRSEDTAVYYCARDTDYMFDYWGQGTLVTVSS VL: SSELTQDPVVSVALGETVSITCQGDNLRDFYASWYQQKPGQAPLLVMYGKNRRPSGIPDRFSGSTSGNTLSLTITGAQAEDEADYYCSSRDNSKHVVFGGGTKVTVL . State its measured pKd.
Ans: 10.47

Q: Consider the binder m863 antibody in human IgG1 format (antibody, V domains shown, also called m863 mAb) VH: EVQLVETGAEVKKPGASVKVSCKASGYTFTGYYMHWVRQAPGQGLEWMGWINPTSGSTNYAQKFQGRVTMTRDTSISTAYMELSGLRSDDTAVYYCVRDPGSPKWLAFDPWGQGTLVTVSS VL: DIQLTQSPSSLSASVGDRVTITCRASRAISRYLNWYQQKPGKAPKLLIYAASSLQSGVSSRFSGSGSGTEFTLTISSLQPEDFATYFCQQTYSPPITFGQGTRLEIKR . State its measured pKd.
Ans: 8.92

Q: Consider the binder m822 antibody in human IgG1 format (antibody, V domains shown, also called m822 mAb) VH: QVQLVQSGAEVKKPGASVKVSCKVSGYTFSSYAISWVRQAPGQGLEWMGGIIPIFGTANYAQKFQGRVTITADESTSTAYMELSSLRSEDTAVYYCARDTDYMFDYWGQGTLVTVSS VL: SSELTQDPVVSVALGETVSITCQGDNLRDFYASWYQQKPGQAPLLVMYGKNRRPSGIPDRFSGSTSGNTLSLTITGAQAEDEADYYCSSRDNSKHVVFGGGTKVTVL . State its measured pKd.
Ans: 7.46

Q: Consider the binder m830 antibody in human IgG1 format (antibody, V domains shown, also called m830 mAb; human m830-IgG1) VH: EVQLVESGGGVVQPGRSVRLSCAASGFTFSTYTMHWVRQAPGKGLEWVAIISNDGSNKYYADPVRGRFTISRDNSKNTLYLQMNSLRAEDTAVYYCVRGSSWYRGNWFDPWGQGTLVTVSS VL: DIQMTQSPSSLSASVGDRVTIACRASQTISRYLNWYQQKPGKAPKLLIYAASSLQSGVSSRFSGSGSGTEFTLTISSLQPEDFATYFCQQTYSPPITFGQGTRLEIKR . State its measured pKd.
Ans: 7.92
